- assay name: Pharmacokinetic study of CLDN18.2-linker conjugates (serum ELISA, NCA)
- Format: in vivo, BALB/c mice
- protocol conditions: BALB/c mice, intravenous, about 1 mg/kg, serum, over 48 hours
measurement label: Vd (L/kg)

1) CLDN18.2-L006: Claudin 18.2 sdAb (SEQ ID NO. 1) conjugated with functional linker L006 (conjugate, functional linker L006 conjugated) VHH: EVQLVESGGGLVQPGGSLRLSCAASGSFFRIVAMGWYRQAPGSQRELVATITRGGSTYYADSVKGRFTISRDNAKNTLYLQMNSLRAEDTAVYYCNVRVEVPFMQPNDYWGQGTLVTVSS | 0.408
